- Tested on: KM20L2
- test.description: Human cancer cell line growth inhibition, colon KM20L2
- Format: cell-based
Recorded measurements of GI50 Colon KM20L2, one per entry

Worked examples follow.
>  <compound>
O=C1NC2C(=CC(O)C3OP(=O)([O-])OC23)c2cc3c(c(O)c21)OCO3.O=C1NC2C(=CC(O)C3OP(=O)([O-])OC23)c2cc3c(c(O)c21)OCO3.[Mn+2] (centres unmarked) [Compound 3j, Manganese Narcistatin]

>  <GI50 Colon KM20L2>
0.13 µg/mL

$$$$
>  <compound>
O=C1N[C@@H]2C(=C[C@H](O)[C@H]3OP(=O)(O)O[C@H]32)c2cc3c(c(O)c21)OCO3.c1ccncc1 [Compound 3a, Pyridinium Narcistatin]

>  <GI50 Colon KM20L2>
0.34 µg/mL

$$$$

Tell me the measured GI50 Colon KM20L2 of C1COCCN1.O=C1N[C@@H]2C(=C[C@H](O)[C@H]3OP(=O)(O)O[C@H]32)c2cc3c(c(O)c21)OCO3 [Compound 3n, Morpholinium Narcistatin] , please.
0.54 µg/mL

Next record, please: C=C[C@@H]1CN2CC[C@@H]1C[C@@H]2[C@H](O)c1ccnc2ccc(OC)cc12.O=C1N[C@@H]2C(=C[C@H](O)[C@H]3OP(=O)(O)O[C@H]32)c2cc3c(c(O)c21)OCO3 [Compound 3l, Quininium Narcistatin]
0.12 µg/mL

Record: C=C[C@@H]1CN2CC[C@@H]1C[C@H]2[C@@H](O)c1ccnc2ccc(OC)cc12.O=C1N[C@@H]2C(=C[C@H](O)[C@H]3OP(=O)(O)O[C@H]32)c2cc3c(c(O)c21)OCO3 [Compound 3k, Quinidinium Narcistatin]
0.58 µg/mL

###

- Tested on: BXPC-3
- test.description: Human cancer cell line growth inhibition, pancreas BXPC-3
- Type: cell-based
The molecules listed here are annotated with their GI50 Pancreas-a BXPC-3.
Report the value in µg/mL with no unit label.

>  <molecule>
O=C1NC2C(=CC(O)C3OP(=O)([O-])OC23)c2cc3c(c(O)c21)OCO3.O=C1NC2C(=CC(O)C3OP(=O)([O-])OC23)c2cc3c(c(O)c21)OCO3.[Mn+2] (centres unmarked) [Compound 3j, Manganese Narcistatin]

>  <GI50 Pancreas-a BXPC-3, µg/mL>
0.049

$$$$
>  <molecule>
C=C[C@@H]1CN2CC[C@@H]1C[C@H]2[C@@H](O)c1ccnc2ccc(OC)cc12.O=C1N[C@@H]2C(=C[C@H](O)[C@H]3OP(=O)(O)O[C@H]32)c2cc3c(c(O)c21)OCO3 [Compound 3k, Quinidinium Narcistatin]

>  <GI50 Pancreas-a BXPC-3, µg/mL>
0.31

$$$$
>  <molecule>
C=C[C@@H]1CN2CC[C@@H]1C[C@@H]2[C@H](O)c1ccnc2ccc(OC)cc12.O=C1N[C@@H]2C(=C[C@H](O)[C@H]3OP(=O)(O)O[C@H]32)c2cc3c(c(O)c21)OCO3 [Compound 3l, Quininium Narcistatin]

>  <GI50 Pancreas-a BXPC-3, µg/mL>
0.051

$$$$
>  <molecule>
O=C1N[C@@H]2C(=C[C@H](O)[C@H]3OP(=O)(O)O[C@H]32)c2cc3c(c(O)c21)OCO3.c1ccncc1 [Compound 3a, Pyridinium Narcistatin]

>  <GI50 Pancreas-a BXPC-3, µg/mL>
0.22

$$$$

Which GI50 Pancreas-a BXPC-3 is reported for this molecule? C1COCCN1.O=C1N[C@@H]2C(=C[C@H](O)[C@H]3OP(=O)(O)O[C@H]32)c2cc3c(c(O)c21)OCO3 [Compound 3n, Morpholinium Narcistatin]
0.25
